Give measured Relative binding activity, % for each item. Keep answers brief.
Molecular target: T1, Biotin-huCGRPaSA (human, not fully specified; biotin (position not given))
T1 construct: exact construct ('aSA') not explained; also called Biotin CGRPaSA; full-length (1-37) CGRP
T1 peptide: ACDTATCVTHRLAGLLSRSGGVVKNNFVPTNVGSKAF
Assay: ELISA, supernatant; relative to chimeric C245
Give bare numbers, in %.

Some entries whose results are on file:
hu54 (antibody, V domains shown, 1F5 HC-3/1A2 LC2-2) VH: QVQLVQSGAEVKKPGASVKVSCKASGYTFTDFNMHWVRQAPGQGLEWMGYIYPYNGDVVYNQNFTNRVTLTVDTSSSTAYMELRSLRSDDTAVYYCAREGLGGYWGQGTLVTVSS VL: DIVLTQSPASLAVSPGQRATITCKASQNIDYDGYAYLNWYQQKPGQPPKVLIYSVFNLESGVPARFSGSGSGTDFTLTINPVEADDTANYYCQQSNEFPYTFGQGTKLEIK : 22
hu165 (antibody, V domains shown, 3E5 HC-2/2B8 LC2-1) VH: QVQLVQSGAEVKKPGASVKVSCKASGYTFTDYNMHWVRQAPGQRLEWMGYISPYNGGTAYNQKFKFRVTLTVDTSSSTAYMELSSLRSEDTAVYYCAREGLGGYWGQGTLVTVSS VL: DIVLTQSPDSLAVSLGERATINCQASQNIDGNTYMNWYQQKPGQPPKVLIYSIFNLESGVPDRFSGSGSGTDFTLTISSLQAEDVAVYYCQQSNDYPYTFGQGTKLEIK : 87

Consider now this further binder.
stdin: Form field: reported Relative binding activity, % of hu98 (antibody, V domains shown, 2A2 HC-1/1F5 LC1-3) VH: QVQLVQSGAEVKKPGASVKVSCKASGYTFTDYNMHWVRQAPGQRLEWMGYVYPYNGGSAYNQKFKSRVTLTVDTSSSTAYMELSSLRSEDTAVYYCAREGLGGYWGQGTLVTVSS VL: DIVLTQSPASLAVSPGQRATITCKASQNIDFDGYAYMNWYQQKPGQPPKVLIYSVFNLESGVPARFSGSGSGTDFTLTINPVEADDTANYYCQQSHEVPYTFGQGTKLEIK
stdout: 76

The reported numbers originate from patent US20260125454A1.
